I'd be grateful if you could share measured IC50 for these entries.
Tested on: H630R10 (colon cancer cell line)
PROTOCOL SUMMARY: Crystal violet cell proliferation assay
Type: cell-based, human
MEASUREMENT PARAMETERS: Homo sapiens; Table 6; H630R10; 72 hours; standard error less than 20%
Answers are plain numbers, in µM.

Each of the following entries comes with a recorded value; kindly state IC50 for each.
1. O=c1[nH]c(=O)n([C@H]2C[C@H](O)[C@@H](CO)O2)cc1F
2. O=c1[nH]c(=O)n([C@H]2C[C@H](O)[C@@H](CO)O2)cc1/C=C/Br [BVDU, (E)-5-(2-bromovinyl)-2′-deoxyuridine]

[170, 2880]
